- ASSAYED SYSTEM: recombinant human His-ATG7 enzyme (Homo sapiens (Human), UniProt O95352)
- Sequence (O95352 whole entry): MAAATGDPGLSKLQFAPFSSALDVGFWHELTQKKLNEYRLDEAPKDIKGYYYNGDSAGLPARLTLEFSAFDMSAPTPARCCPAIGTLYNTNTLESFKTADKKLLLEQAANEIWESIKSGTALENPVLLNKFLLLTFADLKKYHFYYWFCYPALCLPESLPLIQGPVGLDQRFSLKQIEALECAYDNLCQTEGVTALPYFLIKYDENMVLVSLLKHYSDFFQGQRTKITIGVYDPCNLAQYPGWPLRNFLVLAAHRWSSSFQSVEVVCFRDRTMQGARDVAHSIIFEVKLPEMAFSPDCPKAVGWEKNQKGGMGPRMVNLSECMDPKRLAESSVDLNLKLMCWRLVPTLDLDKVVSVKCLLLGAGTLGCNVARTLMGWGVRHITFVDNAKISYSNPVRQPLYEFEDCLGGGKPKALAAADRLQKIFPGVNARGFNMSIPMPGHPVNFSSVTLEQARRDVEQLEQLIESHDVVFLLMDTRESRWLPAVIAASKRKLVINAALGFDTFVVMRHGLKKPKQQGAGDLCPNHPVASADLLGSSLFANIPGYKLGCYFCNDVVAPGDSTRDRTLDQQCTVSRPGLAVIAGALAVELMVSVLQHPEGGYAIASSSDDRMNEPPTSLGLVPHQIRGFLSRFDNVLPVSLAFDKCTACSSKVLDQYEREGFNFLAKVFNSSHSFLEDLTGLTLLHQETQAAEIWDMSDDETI
- ASSAY REMARKS: ATG7 Enzyme Assay (HTRF/FRET, ATG3-GST and Flag-Gabarap)
- Assay type: biochemical
- DETAILS: Concentration 0.111 μM; read-out: Percent Inhibition
VALUE KIND: inhibition at 0.111 µM (%)

Sample answers from the record:
Could you share which inhibition at 0.111 µM value was measured for `Nc1ncnc2c1c(Sc1ccc3c(c1)OCO3)nn2[C@H]1C[C@H](O)[C@@H](COS(N)(=O)=O)O1` ?
66

Could you share which inhibition at 0.111 µM value was measured for `Nc1ncnc2c1c(Sc1cccc(F)c1)nn2[C@H]1C[C@H](O)[C@@H](COS(N)(=O)=O)O1` ?
44

Could you share which inhibition at 0.111 µM value was measured for `Nc1ncnc2c1c(Sc1ccc3c(c1)OCCO3)nn2[C@H]1C[C@H](O)[C@@H](COS(N)(=O)=O)O1` ?
68

Could you share which inhibition at 0.111 µM value was measured for `Nc1ncnc2c1c(Sc1ccccn1)nn2[C@H]1C[C@H](O)[C@@H](COS(N)(=O)=O)O1` ?
79

Could you share which inhibition at 0.111 µM value was measured for `COc1ccc(Sc2nn([C@H]3C[C@H](O)[C@@H](COS(N)(=O)=O)O3)c3ncnc(N)c23)c(F)c1` ?
74

A. Cc1nn([C@H]2C[C@H](O)[C@H](COS(N)(=O)=O)O2)c2ncnc(N)c12
B. Cc1ccc(Sc2nn([C@@H]3O[C@H](COS(N)(=O)=O)[C@@H](O)[C@@H]3F)c3ncnc(N)c23)nc1
Between item A and item B , which reported inhibition at 0.111 µM is smaller? Kindly state the label of the option you pick.
A

---

- ASSAYED SYSTEM: recombinant human His-ATG7 enzyme (Homo sapiens (Human))
- ASSAY REMARKS: ATG7 Enzyme Assay (HTRF/FRET, ATG3-GST and Flag-Gabarap)
- Assay type: biochemical
- DETAILS: Concentration 0.123 μM; read-out: Percent Inhibition
VALUE KIND: inhibition at 0.123 µM (%)

Sample answers from the record:
Could you share which inhibition at 0.123 µM value was measured for `Nc1ncnc2c1c(Sc1ccccc1Cl)nn2[C@@H]1O[C@H](COS(N)(=O)=O)[C@@H](O)[C@H]1O` ?
80

Could you share which inhibition at 0.123 µM value was measured for `CSCc1nn([C@@H]2O[C@H](COS(N)(=O)=O)[C@@H](O)[C@H]2O)c2ncnc(N)c12` ?
47

Could you share which inhibition at 0.123 µM value was measured for `Nc1ncnc2c1c(-c1nccs1)nn2[C@@H]1O[C@H](COS(N)(=O)=O)[C@@H](O)[C@H]1O` ?
15

Could you share which inhibition at 0.123 µM value was measured for `COCCSc1nn([C@@H]2O[C@H](COS(N)(=O)=O)[C@@H](O)[C@H]2O)c2ncnc(N)c12` ?
72

P. Nc1ncnc2c1c(C(F)F)nn2[C@@H]1O[C@H](COS(N)(=O)=O)[C@@H](O)[C@H]1O
Q. Nc1ncnc2c1c(-c1ncco1)nn2[C@@H]1O[C@H](COS(N)(=O)=O)[C@@H](O)[C@H]1O
R. Cc1nn([C@@H]2O[C@H](COS(N)(=O)=O)[C@@H](O)[C@H]2O)c2ncnc(N)c12
Rank order required: inhibition at 0.123 µM, descending. Your task in answering is to list the labels in the requested order.
P, R, Q

---

- ASSAYED SYSTEM: recombinant human His-ATG7 enzyme (Homo sapiens (Human))
- ASSAY REMARKS: ATG7 Enzyme Assay (HTRF/FRET, ATG3-GST and Flag-Gabarap)
- Type: biochemical
- DETAILS: Concentration 0.111 μM; read-out: Percent Inhibition
VALUE KIND: inhibition at 0.111 µM (%)

1. CC(C)(C)Sc1nn([C@H]2C[C@H](O)[C@@H](COS(N)(=O)=O)O2)c2ncnc(N)c12 [Compound I-177]
2. Nc1ncnc2c1c(Sc1cccc(OC(F)(F)F)c1)nn2[C@H]1C[C@H](O)[C@@H](COS(N)(=O)=O)O1 [Compound I-198]
Could you kindly indicate whether 1 or 2 has the higher inhibition at 0.111 µM value? Kindly state the label of the option you pick.
1

---

- ASSAYED SYSTEM: recombinant human His-ATG7 enzyme (Homo sapiens (Human))
- ASSAY REMARKS: ATG7 Enzyme Assay (HTRF/FRET, ATG3-GST and Flag-Gabarap)
- Type: biochemical
- DETAILS: Concentration 0.111 μM; read-out: Percent Inhibition
VALUE KIND: inhibition at 0.111 µM (%)

For the record `Nc1ncnc2c1c(Sc1ccc3c(c1)OCC3)nn2[C@H]1C[C@H](O)[C@@H](COS(N)(=O)=O)O1` , what value of inhibition at 0.111 µM is listed for recombinant human His-ATG7 enzyme (Homo sapiens (Human))?
77

1. Nc1ncnc2c1c(C(F)F)nn2[C@H]1C[C@H](O)[C@H](COS(N)(=O)=O)O1
2. Nc1ncnc2c1c(Sc1ccc([N+](=O)[O-])cn1)nn2[C@@H]1O[C@H](COS(N)(=O)=O)[C@@H](O)[C@@H]1F
Could you kindly indicate whether 1 or 2 has the higher inhibition at 0.111 µM value? Kindly state the label of the option you pick.
2

---

Recorded pIC50 for the following compounds
- ASSAYED SYSTEM: recombinant human His-ATG7 enzyme (Homo sapiens (Human), UniProt O95352)
- ASSAY REMARKS: ATG7 Enzyme Assay (HTRF/FRET, ATG3-GST and Flag-Gabarap)
pIC50: −log10 of the molar value.

Could you share which pIC50 value was measured for Cc1ccc(Sc2nn([C@H]3C[C@H](O)C(COS(N)(=O)=O)O3)c3ncnc(N)c23)c(F)c1 (stereo in doubt) ?
7.00 to 7.30

Could you share which pIC50 value was measured for `Nc1ncnc2c1c(Sc1ccccc1Cl)nn2[C@@H]1O[C@H](COS(N)(=O)=O)[C@@H](O)[C@H]1O` ?
7.30 to 7.70

Could you share which pIC50 value was measured for `Nc1ncnc2c1c(SC1CNC1)nn2[C@@H]1O[C@H](COS(N)(=O)=O)[C@@H](O)[C@H]1O` ?
7.00 to 7.30

Could you share which pIC50 value was measured for `Nc1ncnc2c1c(CCc1ccccc1)nn2[C@@H]1O[C@H](COS(N)(=O)=O)[C@@H](O)[C@H]1O` ?
6.30 to 7.00

Next:
Could you share which pIC50 value was measured for `Nc1ncnc2c1c(Sc1cccnc1)nn2[C@@H]1O[C@H](COS(N)(=O)=O)[C@@H](O)[C@@H]1F` ?
7.00 to 7.30

Could you share which pIC50 value was measured for CCC(C)Sc1nn([C@@H]2O[C@H](COS(N)(=O)=O)[C@@H](O)[C@@H]2F)c2ncnc(N)c12 (single isomer, unassigned) [Compound I-136b] ?
7.00 to 7.30

Could you share which pIC50 value was measured for COC(C)c1nn([C@@H]2O[C@H](COS(N)(=O)=O)[C@@H](O)[C@H]2O)c2ncnc(N)c12 (mixture of isomers) ?
< 6.30

Could you share which pIC50 value was measured for `COCCSc1nn([C@@H]2O[C@H](COS(N)(=O)=O)[C@@H](O)[C@H]2O)c2ncnc(N)c12` ?
7.30 to 7.70

Could you share which pIC50 value was measured for `Nc1ncnc2c1c(SCC1CC(F)(F)C1)nn2[C@@H]1O[C@H](COS(N)(=O)=O)[C@@H](O)[C@@H]1F` ?
7.30 to 7.70

Could you share which pIC50 value was measured for `Cn1ccnc1Sc1nn([C@@H]2O[C@H](COS(N)(=O)=O)[C@@H](O)[C@@H]2F)c2ncnc(N)c12` ?
6.30 to 7.00

Could you share which pIC50 value was measured for `Nc1ncnc2c1c(SC1CCCC1)nn2[C@@H]1O[C@H](COS(N)(=O)=O)[C@@H](O)[C@H]1O` ?
> 7.70

Could you share which pIC50 value was measured for `Cc1cccc(Sc2nn([C@@H]3O[C@H](COS(N)(=O)=O)[C@@H](O)[C@H]3O)c3ncnc(N)c23)c1` ?
> 7.70

Could you share which pIC50 value was measured for `Nc1ncnc2c1c(Sc1ccc(Cl)cn1)nn2[C@H]1C[C@H](O)[C@@H](COS(N)(=O)=O)O1` ?
7.00 to 7.30

Could you share which pIC50 value was measured for `Nc1ncnc2c1c(SCCc1ccccc1)nn2[C@@H]1O[C@H](COS(N)(=O)=O)[C@@H](O)[C@H]1O` ?
7.30 to 7.70

Could you share which pIC50 value was measured for `Cc1csc(Sc2nn([C@H]3C[C@H](O)[C@@H](COS(N)(=O)=O)O3)c3ncnc(N)c23)n1` ?
6.30 to 7.00

Could you share which pIC50 value was measured for `Nc1ncnc2c1c(Sc1ccc3c(c1)CCC3)nn2[C@H]1C[C@H](O)[C@H](COS(N)(=O)=O)O1` ?
6.30 to 7.00

Could you share which pIC50 value was measured for `Nc1ncnc2c1c(SCc1ccccc1)nn2[C@@H]1O[C@H](COS(N)(=O)=O)[C@@H](O)[C@@H]1F` ?
7.30 to 7.70

Could you share which pIC50 value was measured for Nc1ncnc2c1c(SC1CCCCC1O)nn2[C@@H]1O[C@H](COS(N)(=O)=O)[C@@H](O)[C@H]1O (mixture of isomers) ?
6.30 to 7.00

Could you share which pIC50 value was measured for `Nc1ncnc2c1c(CO)nn2[C@@H]1O[C@H](COS(N)(=O)=O)[C@@H](O)[C@H]1O` ?
6.30 to 7.00

Could you share which pIC50 value was measured for `Nc1ncnc2c1c(OC(F)F)nn2[C@H]1C[C@H](O)[C@@H](COS(N)(=O)=O)O1` ?
7.00 to 7.30

Could you share which pIC50 value was measured for `COc1nn([C@@H]2O[C@H](COS(N)(=O)=O)[C@@H](O)[C@H]2O)c2ncnc(N)c12` ?
7.00 to 7.30

Could you share which pIC50 value was measured for `Nc1ncnc2c1c(SCc1ccncc1)nn2[C@@H]1O[C@H](COS(N)(=O)=O)[C@@H](O)[C@@H]1F` ?
7.00 to 7.30

Could you share which pIC50 value was measured for `Nc1ncnc2c1c(SCC1CCC1)nn2[C@@H]1O[C@H](COS(N)(=O)=O)[C@@H](O)[C@@H]1F` ?
> 7.70
